These measurements were taken from ChEMBL document CHEMBL1949630.

assay: Oral bioavailability in dog at 2 mg/kg by LC/MS/MS analysis; format: ADME, organism-based, Canis lupus familiaris; details: in vivo
parameterMeasured: bioavailability (%)
Numbers only, in %.

Identify measured bioavailability associated with FC(F)(F)Oc1ccc(CN2CCC3(CC2)OC(c2cc(Cl)ccn2)c2ccccc23)cc1 (stereo unspecified)
88

###

system: Mus musculus; assay: Dose normalized AUC in C57BL/6 mouse at 1 mg/kg by LC/MS/MS analysis; assay type: ADME, organism-based; design: dose 1 mg/kg; settings: in vivo
parameterMeasured: AUC/dose

| compound | AUC/dose |
| --- | --- |
| O=S(=O)(c1ccc(OC(F)(F)F)cc1)N1CCC2(CC1)OC(c1cc(Cl)cc(Cl)c1)c1cccnc12 (racemic) | 0.33 µM·kg·h/mg |
| CC(c1ccc(F)cn1)N1CCC2(CC1)OC(c1cc(Cl)cc(Cl)c1)c1cccnc12 (centres undefined) | 0.028 µM·kg·h/mg |

Give AUC/dose for all compounds that follow.
1. OCC(c1ccccc1)N1CCC2(CC1)OC(c1cc(Cl)cc(Cl)c1)c1cccnc12 (racemic)
2. FC(F)(F)Oc1ccc(CN2CCC3(CC2)OC(c2ccc(Cl)cn2)c2ccccc23)cc1 (racemic)

1. 0.05 µM·kg·h/mg
2. 0.46 µM·kg·h/mg
